Reference source for all entries: patent US20210380703A1

molecular target: T1, biotinylated goat anti-human kappa light chain; assay: ELISA, positive control; note: test concentration or dose not given here
T1 construct: positive control of the ELISA
This section presents binders with their documented optical density values.
READOUT_LABEL: optical density (OD)

* 375_H05 (antibody, V domains shown, Group III) VH: EVQLLESGGGLVQPGGSLRLSCAASGFTFSSYSMNWVRQAPGKGLEWVSNINYNGGYTGYADSVKGRFTISRDNSKNTLYLQMNSLRAEDTAVYYCARGANWHDTALDYWGQGTLVTVSS VL: DIQMTQSPSSLSASVGDRVTITCRASQSILSYVNWYQQKPGKAPKLLIYAATSRASGVPSRFSGSGSGTDFTLTISSLQPEDFATYYCQQSYDTPLTFGGGTKVEIK | 3.17
* 371_E10 (antibody, V domains shown, Group III) VH: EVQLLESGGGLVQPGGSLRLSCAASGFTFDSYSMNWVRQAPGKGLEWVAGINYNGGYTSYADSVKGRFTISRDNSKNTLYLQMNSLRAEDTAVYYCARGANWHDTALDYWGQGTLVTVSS VL: DIQMTQSPSSLSASVGDRVTITCRASQSISTYLNWYQQKPGKAPKLLIYAVTSRASGVPSRFSGSGSGTDFTLTISSLQPEDFATYYCQQSYNSPLTFGGGTKVEIK | 3.49
* 371_H08 (antibody, V domains shown, Group III) VH: EVQLLESGGGLVQPGGSLRLSCAASGFTFSSYGMNWVRQAPGKGLEWVASINYNGGYKGYADSVKGRFTISRDNSKNTLYLQMNSLRAEDTAVYYCARGANWHDTHLDYWGQGTLVTVSS VL: DIQMTQSPSSLSASVGDRVTITCRASQSIISYVNWYQQKPGKAPKLVIYAVTSRASGVPSRFSGSGSGTDFTLTISSLQPEDFATYYCQQSYDTPLTFGGGTKVEIK | 3.47
